As an illustration, consider measured Ki for compounds on WDR5 (Homo sapiens, UniProt P61964).
readout: Ki

> print(dat)
                                   compound                    target.under.test  readout  test.result
1  CC(C)[S+]([O-])c1cc(Cl)cc(NS(=O)(=O)c2cc(Br)cc(Cl)c2O)c1O (stereo not shown) [Example S23.2]  WDR5 (Homo sapiens, UniProt P61964)       Ki       330 nM
2  CC(C)[S+]([O-])c1cc(Cl)cc(NS(=O)(=O)c2cc(Br)ccc2O)c1O (stereo not shown) [Example S23.3]  WDR5 (Homo sapiens, UniProt P61964)       Ki       360 nM
3  O=C(O)c1cc(Cl)cc(NS(=O)(=O)c2cc(Br)ccc2O)c1O [Example J1]  WDR5 (Homo sapiens, UniProt P61964)       Ki        90 nM
4  O=C(O)c1cc(S(F)(F)(F)(F)F)cc(NS(=O)(=O)c2cc(Br)cc3cccnc23)c1O [Example S68]  WDR5 (Homo sapiens, UniProt P61964)       Ki        20 nM
